I'd be grateful if you could share measured growth for these entries.
System: UACC-257 melanoma
Assay info: NCI-60 one-dose screen, 48 h (100 = growth as untreated, 0 = no growth, -100 = all killed)
Applied conditions: 10 µM unless noted
This is part of a sample that, as a whole, favours compounds with a hit. Of some 83,000 tested, about 20% had one in any assay.
Answers are plain numbers, in %.

{"Compound": "CC(O)C(NC(=O)C1CCCN1C(=O)CNC(=O)C1CC(=O)NCC(=O)NC(Cc2c[nH]c3ccccc23)C(=O)NC(Cc2ccc(O)cc2)C(=O)NCC(=O)NC(CO)C(=O)NC(CCC(N)=O)C(=O)NC(Cc2c[nH]c3ccccc23)C(=O)N1)C(=O)NCC(=O)NC(CCC(N)=O)C(=O)NC(CCCNC(=N)N)C(=O)NC(CC(=O)O)C(=O)O (configuration not stated)", "Unit string": "%", "growth": 102}
{"Compound": "COc1ccc(C(=O)/C=C/c2ccc(Oc3nc(NCCO)nc(N4CCOCC4)n3)c(OC)c2)cc1", "Unit string": "%", "growth": 89.9}
{"Compound": "N#Cc1c(-c2ccc(Cl)cc2)nc(SCc2ccc([N+](=O)[O-])cc2)nc1N1CCNCC1", "Unit string": "%", "growth": 43.5}

Below is a list of compounds. For each, state its recorded growth.
1. N/C(=N\c1nc2c(Cl)cc(Cl)cc2s1)C(Cl)(Cl)Cl
2. Cc1ccc2c(n1)C(=O)C(Cl)=C(Nc1cccc(C(C)C)c1)C2=O
3. CSCCC(C(=O)O)N1C(=O)/C(=C/c2ccc(O)c(O)c2)SC1=S (configuration not stated)
4. CN1C(=O)N(c2ccccc2)C2N=C(N/N=C/c3ccccc3)SC21 (configuration not stated)

Marked response:
1: 78.1; 2: 1.85; 3: 104; 4: 64

Source of measurements: PubChem BioAssay (NCI)
